- Tested On: Nonstructural protein 5A (Hepatitis C virus) (UniProt Q5L478)
- Sequence (Q5L478 as listed by the source): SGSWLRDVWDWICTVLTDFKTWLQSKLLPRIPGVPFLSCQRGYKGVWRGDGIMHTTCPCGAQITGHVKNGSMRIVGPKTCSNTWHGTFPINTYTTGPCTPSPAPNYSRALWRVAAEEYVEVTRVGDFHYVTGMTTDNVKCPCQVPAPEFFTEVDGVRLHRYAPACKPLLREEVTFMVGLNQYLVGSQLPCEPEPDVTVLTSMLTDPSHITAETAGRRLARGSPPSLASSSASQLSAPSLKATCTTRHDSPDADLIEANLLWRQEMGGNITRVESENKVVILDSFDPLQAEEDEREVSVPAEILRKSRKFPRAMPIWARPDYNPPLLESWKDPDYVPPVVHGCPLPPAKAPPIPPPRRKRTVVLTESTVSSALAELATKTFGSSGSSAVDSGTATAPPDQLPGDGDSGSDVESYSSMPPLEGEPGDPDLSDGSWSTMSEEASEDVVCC
- Procedure Summary: Inhibition of wild type HCV genotype 2b NS5A assessed as reduction in viral RNA level by cell based real time PCR method
- Run Conditions: Hepatitis C virus subtype 2b
What EC90 was measured for each of the following?
Entry rule: numbers only, all in nM.

Param item = COC(=O)N[C@H](C(=O)N1CCC[C@H]1c1ncc(-c2ccc3c(c2)O[C@@H](c2ccccc2)n2c-3cc3cc(-c4cnc([C@@H]5CCCN5C(=O)[C@@H](NC(=O)OC)[C@@H](C)OC)[nH]4)ccc32)[nH]1)C(C)C ; retrieve measured EC90.
35

Param item = CCN(CC)[C@@H](C(=O)N1CCC[C@H]1c1ncc(-c2ccc3c(c2)cc2n3[C@H](c3ccccc3)Oc3cc(-c4cnc([C@@H]5CCCN5C(=O)[C@@H](NC(=O)OC)C(C)C)[nH]4)ccc3-2)[nH]1)c1ccccc1 ; retrieve measured EC90.
4

Param item = CCN(CC)[C@@H](C(=O)N1CCC[C@H]1c1ncc(-c2ccc3c(c2)O[C@@H](c2ccccc2)n2c-3cc3cc(-c4cnc([C@@H]5CCCN5C(=O)[C@@H](c5ccccc5)N(CC)CC)[nH]4)ccc32)[nH]1)c1ccccc1 ; retrieve measured EC90.
3.1

Param item = COC(=O)N[C@H](C(=O)N1CCC[C@H]1c1ncc(-c2ccc3c(c2)cc2n3[C@H](c3ccccc3)Oc3cc(-c4cnc([C@@H]5CCCN5C(=O)[C@@H](NC(=O)OC)[C@@H](C)OC)[nH]4)ccc3-2)[nH]1)C(C)C ; retrieve measured EC90.
5

Param item = COC(=O)N[C@H](C(=O)N1CCC[C@H]1c1ncc(-c2ccc3c(c2)O[C@@H](c2ccccc2)n2c-3cc3cc(-c4cnc([C@@H]5CCCN5C(=O)[C@@H](NC(=O)OC)C5CCOCC5)[nH]4)ccc32)[nH]1)C1CCOCC1 ; retrieve measured EC90.
1.2

Param item = COC(=O)N[C@H](C(=O)N1CCC[C@H]1c1ncc(-c2ccc3c(c2)O[C@@H](c2ccccc2)n2c-3cc3cc(-c4cnc([C@@H]5CCCN5C(=O)[C@@H](NC(=O)OC)C5CCOCC5)[nH]4)ccc32)[nH]1)C(C)C ; retrieve measured EC90.
9

Param item = COC(=O)N[C@@H](CC1CCOCC1)C(=O)N1CCC[C@H]1c1ncc(-c2ccc3c(c2)cc2n3[C@H](c3ccccc3)Oc3cc(-c4cnc([C@@H]5CCCN5C(=O)[C@@H](NC(=O)OC)C(C)C)[nH]4)ccc3-2)[nH]1 ; retrieve measured EC90.
8.9

Param item = COC(=O)N[C@H](C(=O)N1CCC[C@H]1c1ncc(-c2ccc3c(c2)O[C@@H](c2ccccc2)n2c-3cc3cc(-c4cnc([C@@H]5CCCN5C(=O)[C@@H](NC(=O)OC)C5CCC(F)(F)CC5)[nH]4)ccc32)[nH]1)C1CCC(F)(F)CC1 ; retrieve measured EC90.
77

Param item = CC[C@H](C)[C@H](NC(=O)OC)C(=O)N1CCC[C@H]1c1ncc(-c2ccc3c(c2)O[C@@H](c2ccccc2)n2c-3cc3cc(-c4cnc([C@@H]5CCCN5C(=O)[C@@H](NC(=O)OC)C(C)C)[nH]4)ccc32)[nH]1 ; retrieve measured EC90.
50

----------
- Tested On: Nonstructural protein 5A (Hepatitis C virus)
- Procedure Summary: Inhibition of wild type HCV genotype 2b NS5A assessed as reduction in viral RNA level by cell based real time PCR method
- Run Conditions: Hepatitis C virus subtype 2b
What EC90 was measured for each of the following?

Param item = COC(=O)N[C@H](C(=O)N1CCC[C@H]1c1ncc(-c2ccc3c(c2)O[C@@H](c2ccccc2)n2c-3cc3cc(-c4cnc([C@@H]5CCCN5C(=O)C5(NC(=O)OC)CCCCC5)[nH]4)ccc32)[nH]1)C(C)C ; retrieve measured EC90.
> 100 nM

Param item = COC(=O)N[C@H](C(=O)N1CCC[C@H]1c1ncc(-c2ccc3c(c2)O[C@@H](c2ccccc2)n2c-3cc3cc(-c4cnc([C@@H]5CCCN5C(=O)[C@@H](NC(=O)OC)C5CC5)[nH]4)ccc32)[nH]1)C1CC1 ; retrieve measured EC90.
> 100 nM

Param item = COC(=O)NC1(C(=O)N2CCC[C@H]2c2ncc(-c3ccc4c(c3)O[C@@H](c3ccccc3)n3c-4cc4cc(-c5cnc([C@@H]6CCCN6C(=O)C6(NC(=O)OC)CCOCC6)[nH]5)ccc43)[nH]2)CCOCC1 ; retrieve measured EC90.
> 100 nM

----------
- System: Nonstructural protein 5A (Hepatitis C virus), Q5L478 [Y93H]
- Sequence (Q5L478 entry or part of it Y93H): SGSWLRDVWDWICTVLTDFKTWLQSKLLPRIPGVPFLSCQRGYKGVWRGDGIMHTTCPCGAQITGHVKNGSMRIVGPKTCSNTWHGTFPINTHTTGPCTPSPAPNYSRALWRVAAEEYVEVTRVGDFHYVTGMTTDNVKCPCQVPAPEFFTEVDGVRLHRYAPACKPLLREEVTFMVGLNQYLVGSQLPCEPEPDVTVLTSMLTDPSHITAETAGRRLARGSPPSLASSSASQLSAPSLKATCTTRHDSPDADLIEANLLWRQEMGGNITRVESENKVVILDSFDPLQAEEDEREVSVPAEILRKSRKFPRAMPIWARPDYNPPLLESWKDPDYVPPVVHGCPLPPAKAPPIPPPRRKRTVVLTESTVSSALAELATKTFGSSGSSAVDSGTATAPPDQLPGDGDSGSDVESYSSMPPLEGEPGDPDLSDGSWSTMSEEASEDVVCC
- Procedure Summary: Inhibition of HCV genotype 1a NS5A Y93H mutant assessed as reduction in viral RNA level by cell based real time PCR method
- Run Conditions: Hepatitis C virus subtype 1a
Measurement Kind: EC90

Param item = COC(=O)NC1(C(=O)N2CCC[C@H]2c2ncc(-c3ccc4c(c3)O[C@@H](c3ccccc3)n3c-4cc4cc(-c5cnc([C@@H]6CCCN6C(=O)C6(NC(=O)OC)CCOCC6)[nH]5)ccc43)[nH]2)CCOCC1 ; retrieve measured EC90.
> 0.1 µM

Param item = COC(=O)N[C@H](C(=O)N1CCC[C@H]1c1ncc(-c2ccc3c(c2)O[C@@H](c2ccccc2)n2c-3cc3cc(-c4cnc([C@@H]5CCCN5C(=O)[C@@H](NC(=O)OC)[C@@H](C)OC)[nH]4)ccc32)[nH]1)[C@@H](C)OC ; retrieve measured EC90.
> 0.1 µM

Param item = COC(=O)N[C@@H](C)C(=O)N1CCC[C@H]1c1ncc(-c2ccc3c(c2)O[C@@H](c2ccccc2)n2c-3cc3cc(-c4cnc([C@@H]5CCCN5C(=O)[C@H](C)NC(=O)OC)[nH]4)ccc32)[nH]1 ; retrieve measured EC90.
> 0.1 µM
